assay: solvent given as SMILES
condition-summary: in CC1CCCCC1
recorded-metric: emission maximum (nm)
The reply should contain only the number, in nm.

Use these answered entries as a reference point.
C=CCOc1ccc(-c2nc3cc(C(NC(=O)OC(C)(C)C)C(=O)OC)ccc3o2)cc1 (stereo unspecified) = 329
CN(C)c1cccc2c1C(=O)c1ccccc1C2=O = 566.5
CCNc1ccc2c(C(F)(F)F)cc(=O)oc2c1 = 417
CNc1ccc(/C=C/C#N)cc1 = 391
CN(C)c1ccc(C2=Cc3cccc[n+]3[B-](F)(F)O2)cc1 = 447

Next:
Please indicate emission maximum recorded for O=c1oc2ccccc2cc1-c1nc2ccccc2o1
438

---

assay: solvent given as SMILES
condition-summary: in CS(C)=O
recorded-metric: emission maximum (nm)
The reply should contain only the number, in nm.

CC(C)[Si]1(C(C)C)c2cc(C=C(C#N)C#N)ccc2-c2ccc(N(C)C)cc21 = 714
CCOC(=O)c1sc(SC)c2c(=O)n(C)nnc12 = 501
COc1ccc(-c2c3nc(cc4ccc([nH]4)c(-c4ccc(OC)c(OCCCC(=O)O)c4)c4nc(cc5ccc2[nH]5)C=C4)C=C3)cc1OCCCC(=O)O = 639
CSc1sc(C(=O)c2ccccc2)c2nn[nH]c(=O)c12 = 497

Next:
Please indicate emission maximum recorded for CCN(CC)c1ccc2cc(/C=C/C(O)=C3\CC/C(=C\c4cc5ccc(N(CC)CC)cc5oc4=O)C3=O)c(=O)oc2c1
639

---

assay: solvent given as SMILES
condition-summary: in Cc1ccccc1
Dear colleague, classification is by emission maximum, with ranges listed here: one: < 500 nm; two: ≥ 500 nm and < 600 nm; three: ≥ 600 nm

Example cases with answers are listed next.
c1ccc(-c2nc(-c3ccccc3)nc(-c3ccc(-n4c5ccccc5c5c6c(ccc54)C4(c5ccccc5-c5ccccc54)c4ccccc4-6)cc3)n2)cc1 = one
CC[n+]1ccc(/C=C/c2cc(OC)c(C=O)cc2OC)cc1 = two
CCn1c2ccsc2c2c3nsnc3c3c4sccc4n(CC)c3c21 = two
c1cc2ccc3ccc4cc3c2cc1c1ccc2ccc3ccc(cc3c2c1)c1ccc2ccc3ccc4cc3c2c1 = one
N#Cc1c(N2CCCCC2)cc(-c2ccc(O)cc2)c2c1-c1cccc3cccc-2c13 = two
Cc1ccc(N2C(c3ccccc3[NH-])=[NH+]C(c3ccccc3)C2c2ccccc2)cc1 (stereo unspecified) = two

For this molecule, which bin applies? CC(C)(C)c1ccc2oc(-c3ccc(-c4nc5cc(C(C)(C)C)ccc5o4)s3)nc2c1
one

For this molecule, which bin applies? CCCC1=Cc2nc1ccc1[nH]c(cc1CCC)c1nc(c(OCc3ccc(C(=O)O)cc3)cc3[nH]c2cc3CCC)C(CCC)=C1
three

For this molecule, which bin applies? COc1ccc(C2=CC(c3ccccc3)=[N+]3C2=Nc2c(-c4ccc(OC)cc4)cc(-c4ccccc4)n2[B-]3(F)F)cc1
three

For this molecule, which bin applies? CC(C)(C)c1ccc(C2=CC3=C(c4ccccc4)c4cc(-c5ccc(C(C)(C)C)cc5)c(-c5ccc(C(C)(C)C)cc5)n4[B-](F)(F)[N+]3=C2c2ccc(C(C)(C)C)cc2)cc1
three

For this molecule, which bin applies? c1ccc2c(c1)CCc1ccccc1N2c1c2ccccc2c(N2c3ccccc3CCc3ccccc32)c2ccccc12
two

---

assay: solvent given as SMILES
condition-summary: in ClC(Cl)Cl
Please mark YES if the recorded emission maximum is equal to or greater than 500 nm, and NO if it falls below.

Example cases with answers are listed next.
Cc1ccc(-n2c3ccc(-c4ccc(-c5nc6ccccc6n5-c5ccccc5)cc4)cc3c3cc(-c4ccc(-c5nc6ccccc6n5-c5ccccc5)cc4)ccc32)cc1 = NO
CC(C)(C)c1ccc2oc3nc4oc5ccc(-n6c7ccc(C(C)(C)C)cc7c7cc(C(C)(C)C)ccc76)cc5c4cc3c2c1 = NO
CCN(CC)c1ccc2cc(/C=C/C(O)=C3\CC/C(=C\c4cc5ccc(N(CC)CC)cc5oc4=O)C3=O)c(=O)oc2c1 = YES

Identify whether the reported emission maximum of the following compound is 500 nm or greater: COc1ccc(-n2nc(C(=O)N3CCCC3)c(N3CCCC3)n2)cc1
NO

Identify whether the reported emission maximum of the following compound is 500 nm or greater: CCCCCCCCn1c(=O)c2cc3c(C#Cc4ccc(N(c5ccccc5)c5ccccc5)cc4)c4cc5c(=O)n(CCCCCCCC)c(=O)c5cc4c(C#Cc4ccc(N(c5ccccc5)c5ccccc5)cc4)c3cc2c1=O
YES

---

assay: solvent given as SMILES
condition-summary: in C1CCOC1
recorded-metric: emission maximum (nm)
The reply should contain only the number, in nm.

Use these answered entries as a reference point.
O=c1c2ccccc2sc2ccc(-n3c4ccccc4c4ccccc43)cc12 = 452.5
Cc1cc(C2(c3cc(C)c(O)c(Br)c3)OS(=O)(=O)c3ccccc32)cc(Br)c1O = 492
C(#Cc1ncnc2ccccc12)c1ccc(N(c2ccccc2)c2ccccc2)cc1 = 535

Please indicate emission maximum recorded for CCCCC1(c2ccc(OC)cc2)Nc2ccccc2N=C1c1ccc(OC)cc1 (stereo not drawn)
513

Please indicate emission maximum recorded for CSc1sc(C(=O)c2ccccc2)c2nn[nH]c(=O)c12
482

Please indicate emission maximum recorded for CCn1c2ccsc2c2c3nsnc3c3c4sccc4n(CC)c3c21
539

---

assay: solvent given as SMILES
condition-summary: in ClCCl
Please mark 1.0 if the recorded emission maximum is equal to or greater than 500 nm, and 0.0 if it falls below.

CC1=C(C)C(c2c(C)c(C)c3n2[B-](F)(F)[N+]2=C(C)C(C)=C(C)C2=C3)=[N+]2C1=Cc1c(C)c(C)c(C)n1[B-]2(F)F = 1.0
CC1(C)CC(/C=C/c2ccc(-n3c4ccccc4c4ccccc43)cc2)=CC(=C(C#N)C#N)C1 = 1.0
CN(CCO)c1ccc(/C=C/C2=CC(=C(C#N)C#N)CC(C)(C)C2)cc1 = 1.0

Identify whether the reported emission maximum of the following compound is 500 nm or greater: c1cc(-c2c3ccccc3c(-c3ccc4ccccc4c3)c3ccccc23)cc(-n2c3ccccc3c3ccccc32)c1
0.0

Identify whether the reported emission maximum of the following compound is 500 nm or greater: CCCCCCC1(CCCCCC)c2ccccc2-c2ccc(-c3ccc(-c4cc(-c5ccccn5)nc(-c5ccccn5)c4)cc3)cc21
0.0

Identify whether the reported emission maximum of the following compound is 500 nm or greater: C(=C\c1cnccn1)/c1ccc2nccnc2c1
0.0

---

assay: solvent given as SMILES
condition-summary: in CC#N
recorded-metric: emission maximum (nm)
The reply should contain only the number, in nm.

OCC1O[C@@H](Cc2cc(O)cc(/C=C/c3ccc(O)c(O)c3)c2)[C@H](O)[C@@H](O)[C@@H]1O (stereo not given in full) = 387
COC(=O)c1cc(=O)n(C)c2cc(-c3ccccc3N(C)C)sc12 = 484
COc1ccc(-c2nc3c(c4c2-c2ccccc2CC4)-c2ccccc2CC3)cc1 = 416

Please indicate emission maximum recorded for CC(C)[Si]1(C(C)C)c2cc(C=C(C#N)C#N)ccc2-c2ccc(N(C)C)cc21
694

Please indicate emission maximum recorded for COC(=O)c1cc(=O)n(C)c2cc(-c3cc4c5c(c3)CCCN5CCC4)sc12
511

---

assay: solvent given as SMILES
condition-summary: in CC#N
Each item that follows carries a reported emission maximum.
Give the number first and the unit second.

COC(=O)c1ccc(NC(=O)c2ccc(N(C)C)cc2)cc1 = 516 nm
O=C1CCCc2c1[nH]c1cc3c(cc21)OCO3 = 399.42 nm
N#Cc1nn(-c2cccc(C(F)(F)F)c2)nc1N1CCCC1 = 430 nm

Please indicate emission maximum recorded for N#Cc1cccc2cc[nH]c12
378 nm

Please indicate emission maximum recorded for COC(=O)C([NH3+])Cc1ccc2oc(-c3ccncc3)nc2c1 (stereo not given)
367.92 nm

Please indicate emission maximum recorded for O=C1NC(=O)/C(=C\c2ccccc2O)S1
428 nm

Please indicate emission maximum recorded for COc1ccc(-c2cc3c(ccc(=O)n3C)s2)cc1
424 nm

Please indicate emission maximum recorded for c1ccc(-c2c3c(c(-c4ccccc4)c4cc5ccccc5cc24)Cc2c(c(-c4ccccc4)c4cc5ccccc5cc4c2-c2ccccc2)C3)cc1
400 nm

Please indicate emission maximum recorded for COc1ccc2c3c(cccc13)C(=O)N(C)C2=O
434 nm

Please indicate emission maximum recorded for CN(C)c1ccc(C#Cc2ccccc2)cc1
415.51 nm

Please indicate emission maximum recorded for Nc1ccccc1C(=O)O
397 nm

Please indicate emission maximum recorded for Cc1ccc(-n2c(C)ccc2C)cc1
409 nm

Please indicate emission maximum recorded for COc1c2ccccc2c(OC)c2c1c1cc(C)ccc1n2C
431 nm

Please indicate emission maximum recorded for CCCCCCc1ccc2c(/C=N/c3ccc(/N=C/c4c(O)ccc5cc(CCCCCC)ccc45)cc3)c(O)ccc2c1
539 nm

Please indicate emission maximum recorded for CN(C)c1ccc(/C=C2\CC/C(=C\c3ccc(C#N)cc3)C2=O)cc1
721 nm

Please indicate emission maximum recorded for CCCCCCCCCCCCCCCCOC(=O)c1ccc(N(c2ccccc2)c2ccccc2)cc1
480 nm

Please indicate emission maximum recorded for CN(C)c1ccc(/C=C/C=C/c2ccc(C#N)cc2)cc1
589 nm

Please indicate emission maximum recorded for O=c1[nH]c(=O)n([C@@H]2O[C@H](CO)[C@@H](O)[C@H]2O)cc1-c1cc2ccccc2s1
443 nm

Please indicate emission maximum recorded for CCCCN1c2ccccc2Sc2cc(/C=C/C3=Nc4ccc5ccccc5c4C3(C)C)ccc21
610 nm

This collection of values is drawn from the Deep4Chem optical property database.
